# Test system: Zika virus NS2B-NS3 protease (unlinked complex)
# ASSAY_METHOD_TEXT: Primary screen GU Rhodamine qHTS for Zika virus inhibitors: Unlinked NS2B-NS3 protease assay (AID 1347159); also: % is scaled to controls: 0 for no effect and ±100 for the full control effect; nearly all actives have a fitted effect of over 60% in size
# CONDITIONS: Recombinant ZIKV NS2B-NS3 protease, Rhodamine110 substrate fluorescence; series mostly up to 107 µM
Records with an inconclusive call do not appear. The source made the active and inactive calls. Calls follow the shape of the dose curve; as a rule, active = well fitted inhibition curve with a large enough effect; inconclusive = small, poorly fitted or top-dose-only effect; inactive = no such curve, though single readings can be large or run the other way.
Answer with one of the outcomes 1 (yes) for active, 0 (no) for inactive

Known results for compounds:
COMPOUND	CLASS_ASSIGNMENT
COc1cc(Br)c(S(=O)(=O)Nc2ccc(C(F)(F)F)c(O[C@@H]3CCN(C)C3)c2)cc1OC	0 (no)
CCN(CC)Cc1ccc(C(=O)N(CCc2ccccc2OC)[C@@H]2CCNC2)cc1	0 (no)

Outcome? O=C(OC1C=C(CO)C2C(OC3OC(CO)C(O)C(O)C3O)OC=CC12)c1ccc(O)cc1 (centres undefined)
0 (no)

Same question for Cc1ccc(NC(=O)c2ccc(CN3CC[C@H](N(C)C)C3)c(C(F)(F)F)c2)cc1Nc1nccc(-c2cncnc2)n1 please.
0 (no)

Try COc1cc(C2Oc3c(OC)cc(CCCO)cc3C2CO)ccc1O[C@H]1O[C@H](C)[C@@H](O)[C@H](O)[C@@H]1O (some centres undefined) next.
0 (no)

----------
# ASSAY_METHOD_TEXT: Primary redox qHTS assay for identification of artifact compounds. (AID 1845223);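 also: 0% = DMSO and 100% = reference compound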
# CONDITIONS: Amplex Red/HRP redox cycling with DTT, fluorescence; series mostly up to 53.8 µM
# Description: PI: Alexander Tropsha Ph.D. UNC Eshelman School of Pharmacy University of North Carolina, Chapel Hill, North Carolina Hits from high-throughput screening (HTS) of chemical libraries are often false positives due to their interference with the assay detection technology. […] Using these curated datasets, we developed and validated several Quantitative Structure-Interference Relationship (QSIR) models to predict nuisance behavior. […]
Inconclusive results are not listed. Calls of active or inactive are those of the source. The call rests on the fitted dose curve; in most records, active means well fitted activation curve with a large enough effect; inconclusive means small, poorly fitted or top-dose-only effect; inactive means flat fitted curve, though single readings scatter.
MEASURE_NAME: redox activity (% of DA3003)

COMPOUND	MEASURE_NAME	VALUE
CC(C)(C)Nc1nc2cc(Cl)c(Cl)cc2nc1S(C)(=O)=O	redox activity (% of DA3003)	inactive
O=C(CN1C(=O)C2(CCCC2)NCC1c1cc(F)cc(F)c1)Nc1ccc2c(c1)CC1(C2)C(=O)Nc2ncccc21 (stereo unspecified)	redox activity (% of DA3003)	inactive
CC(=O)O[C@H]1CC[C@@]2(C)C(CC[C@@H](C)[C@]23Cc2c(O)cc4c(c2O3)CN([C@@H](CCC(=O)O)C(=O)O)C4=O)C1(C)C (stereo partly specified)	redox activity (% of DA3003)	inactive
CC(C(O)/C=C/C(C)(C)O)C1CCC2(C)C3C(=O)C=C4C(CCC(O)C4(C)C)C3(C)CCC12C (stereo unspecified)	redox activity (% of DA3003)	inactive
CC12CCC(=O)C=C1C(O)CC1C2C(O)CC2(C)C1CC[C@]2(O)C(=O)CO (stereo partly specified)	redox activity (% of DA3003)	-2.06% [at 11.5 µM] (inactive)

Next item in the queue.
Quick check: redox activity (% of DA3003) of O=C(NCc1cccc(O)c1)c1cc2cc(F)ccc2[nH]1 ?
inactive

----------
# Z-AUC per record follows
# ASSAY_METHOD_TEXT: qHTS drug screen for cell cycle checkpoint inhibitors in PARPi-resistant BRCA-mutant ovarian cancer cell lines. (AID 1963452)
# CONDITIONS: PEO1/OlaR viability, CellTiter-Glo luminescence, 96 h; measured here: PEO4 Z-AUC; stronger effect = lower value
Please give the numeric answer without any surrounding text.

COMPOUND	Z-AUC
CCCCNc1ncc2c(-c3ccc(F)cc3)nn(CC3CCC(N)CC3)c2n1 (stereo not drawn)	-1.35
FC(F)(F)c1ccc(Nc2nc(-c3c(C(F)(F)F)nc4ccccn34)cs2)cc1	-1.77

Would you kindly share the measured Z-AUC for CC[C@H](NC(=O)[C@H](CS(=O)(=O)CC1CC1)N[C@@H](c1ccc(F)cc1)C(F)(F)F)C(=O)C(=O)NC1CC1 ?
1.51

What about CCS(=O)(=O)N1CCN(c2ccc(Nc3ncc(C(N)=O)c(NC4CC4)n3)cc2)CC1 ?
-0.0452

Now this one: CC(O)c1cc(C(=O)N[C@@H](C)Cn2ccc(-c3ccc(C#N)c(Cl)c3)n2)n[nH]1 (stereo partly drawn)
-0.279

// next record Cc1cc(C)c(CNC(=O)c2cc(-c3ccc(CN4CCOCC4)cc3)cc3c2cnn3C2CCCC2)c(=O)[nH]1
0.1

Also Cc1cc(OCc2nnc(SC3CCCC3)n2-c2cccnc2)ccc1-c1ccc(S(C)(=O)=O)cc1 , if possible.
-2.2

Next: NC(=O)[C@H]1CCS[C@@H]2C[C@]3(CCCN3C(=O)Cc3ccc(NC(=O)COc4ccc(Cl)cc4Cl)cc3)C(=O)N12
0.0247

----------
This listing pairs compounds with measured Potency.
# Test system: HEK293
# ASSAY_METHOD_TEXT: Cytotoxic Profiling of Annotated Libraries Using Quantitative High-Throughput Screening (AID 1296008); also: potency is read from the fitted curve at half-maximal effect; nearly all actives have a fitted effect of over 60% in size
# CONDITIONS: Five cell lines viability, CellTiter-Glo ATP luminescence, 48-72 h
Inconclusive results are not listed. Activity calls are given as the source filed them. Calls come from the whole dose curve; as a rule, active = well fitted inhibition curve with a large enough effect; inconclusive = small, poorly fitted or top-dose-only effect; inactive = flat fitted curve, though single readings scatter.

Guide cases for Potency, answers given:
COMPOUND	Potency
CN(CCc1ccc(Nc2ncc(-c3cccnc3)s2)cc1)Cc1ccccc1	7.31 µM (active)
COC(=O)C1(C)c2[nH]c3ccccc3c2CCN1C(=O)CCl (stereo not given)	7.31 µM (active)
CN[C@H](C(=O)N[C@H](C(=O)N(C)[C@H](/C=C(\C)C(=O)O)C(C)C)C(C)(C)C)C(C)(C)c1ccccc1	0.0073 µM (active)

Fill in: Potency of CC(=O)N1CCN(C(=O)Cc2ccc(Nc3ncc(F)c(Nc4ccc(C(=O)Nc5ccccc5Cl)cc4)n3)cc2)CC1 is ___
6.51 µM (active)

Follow-up entry: Nc1ccc(/C=C/C(=O)NCc2cc3cc(-c4ccc(C(=O)N5CCC(F)(F)CC5)cc4)cc(-c4ccc(F)cc4)c3o2)cn1
0.58 µM (active)

----------
# Tested on: CASKI
# ASSAY_METHOD_TEXT: Primary qHTS to identify gynecologic anti-cancer compounds using libraries of approved drugs and bioactive compounds (AID 1345084); also: % is scaled to controls: 0 for no effect and ±100 for the full control effect; nearly all actives have a fitted effect of over 55% in size
# CONDITIONS: Gynecologic cancer cell panel viability, ATPlite luminescence, 48 h; series mostly up to 57.5 µM
Records with an inconclusive call do not appear. Calls of active or inactive are those of the source. Calls follow the shape of the dose curve; as a rule, active = well fitted cell-killing curve with a large enough effect; inconclusive = small, poorly fitted or top-dose-only effect, or effect the other way; inactive = flat fitted curve, though single readings scatter.
MEASURE_NAME: outcome

COMPOUND	outcome
CC1=CC(=O)CC(C)(C)[C@H]1/C=C/C(CO)O[C@@H]1O[C@H](CO)[C@@H](O)[C@H](O)[C@H]1O (stereo partly specified)	inactive
COC(=O)N(C)c1c(N)nc(-c2nn(Cc3ccccc3F)c3ncccc23)nc1N	inactive
O=C(Nc1c(-c2cccs2)nc2ccccn12)c1ccc(Cl)cc1	inactive
COc1ccc(C2COc3cc(O)ccc3C2)c(O)c1 (stereo unspecified)	inactive
CC1=CC2/C=C(\C)CC[C@@H](O)[C@@H](O)[C@@H]3O[C@@H]3C(=O)[C@]23C(=O)N[C@@H](CC(C)C)[C@@H]3[C@@H]1C (stereo partly specified)	inactive

Could you now look at the following compound, please?
Sample COc1cc([C@H]2c3cc(O)c(OC)cc3C[C@@H](CO[C@@H]3O[C@H](CO)[C@@H](O)[C@H](O)[C@H]3O)[C@@H]2CO)ccc1O — what was its outcome?
inactive

----------
# ASSAY_METHOD_TEXT: P-glycoprotein substrates identified in KB-8-5-11 adenocarcinoma cell line, qHTS therapeutic library screen (AID 1346987); also: nearly all actives have a fitted effect of over 65% in size; also: potency is read from the fitted curve at half-maximal effect
# CONDITIONS: KB-8-5-11 (P-gp overexpressing) viability, CellTiter-Glo, 72 h; series mostly up to 44.5 µM
Results filed as inconclusive are left out. The source made the active and inactive calls. Calls follow the shape of the dose curve; as a rule, active = well fitted inhibition curve with a large enough effect; inconclusive = small, poorly fitted or top-dose-only effect; inactive = flat fitted curve, though single readings scatter.
MEASURE_NAME: Potency

MOLECULE	Potency
CCc1ccc(Cc2ccc3c(c2)[C@]2(OC3)O[C@H](CO)[C@@H](O)[C@H](O)[C@H]2O)cc1	inactive
COc1cc2c(cc1O)CC[C@H]1[C@@H]2CC[C@]2(C)[C@H](O)CC[C@@H]12	1300 nM (active)
Nc1nccn2c(C3CCC(C(=O)O)CC3)nc(-c3cc4cccc(Cl)c4[nH]3)c12 (stereo unspecified)	1460 nM (active)
CC[C@]1(O)CC2CN(CCc3c([nH]c4ccccc34)[C@@](C(=O)OC)(c3cc4c(cc3OC)N(C=O)[C@H]3[C@@](O)(C(=O)OC)[C@H](OC(C)=O)[C@]5(CC)C=CCN6CC[C@]43[C@@H]65)C2)C1 (stereo partly specified)	2270 nM (active)
CC1=CC2/C=C(\C)CC[C@@H](O)[C@@H](O)[C@@H]3O[C@@H]3C(=O)[C@]23C(=O)N[C@@H](CC(C)C)[C@@H]3[C@@H]1C (stereo partly specified)	inactive
Cc1noc(-c2ccc(-c3ccc(CC(=O)O)cc3)cc2)c1NC(=O)O[C@H](C)c1ccccc1	inactive
COC(=O)C[C@H]1C(C)(C)[C@H](OC(C)=O)C2CC3=C4CC(=O)O[C@@H](c5ccoc5)[C@]4(C)CCC3[C@@]1(C)C2=O (stereo partly specified)	inactive
CC1=C2C3OC(=O)C(C)C3(O)CCC2(C)CCC1O (stereo unspecified)	inactive

I am curious: what Potency value has been reported for CCO[C@@H]1OC(=O)C[C@@H]1NC(=O)[C@@H]1CCCN1C(=O)[C@@H](NC(=O)c1ccc(N)c(Cl)c1)C(C)(C)C ?
inactive

What do you get for O=C(CC(c1ccccc1)c1ccccc1)N1CCN(C(c2ccccc2)c2ccccc2)CC1 ?
16400 nM (active)
